Entries and their IC50
# target_of_assay: KRAS-G12D and SOS1 (Homo sapiens, UniProt P01116, G12D)
# Sequence (P01116 1-188 isoform P01116-2 G12D): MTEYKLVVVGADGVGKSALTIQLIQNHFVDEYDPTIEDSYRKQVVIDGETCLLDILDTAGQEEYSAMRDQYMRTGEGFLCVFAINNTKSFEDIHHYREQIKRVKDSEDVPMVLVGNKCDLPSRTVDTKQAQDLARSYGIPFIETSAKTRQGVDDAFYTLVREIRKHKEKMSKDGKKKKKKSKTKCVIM
# assay_info: Inhibition of KRAS-G12D/SOS1 binding (Cisbio binding kit, 665/615 ratio), Effect Embodiment A
# conditions: read-out: GTP-KRAS-G12D:SOS1 IC50
Where a name gives a salt, the structure may show the parent alone.
// unit must come after the numeric part

Solved cases below.
CO[C@@H]1C[C@H]2CC[C@@H](C1)N2C[C@@H](C)COc1nc(N2CC3CCC(C2)N3)c2cc(Cl)c(-c3cc(O)cc4ccccc34)c(F)c2n1 (single isomer, unassigned) [Compound 224]    13.2 nM
CCc1c(F)ccc2cccc(-c3c(F)cc4c(N5CC6CCC(C5)N6)nc(OC[C@@]56CCCN5C[C@H](F)C6)nc4c3F)c12 (single isomer, unassigned) [Compound 280a, dihydrochloride]    17.1 nM

Exercise: Tell me the measured IC50 of C[C@H](COc1nc(N2CC3CCC(C2)N3)c2cc(Cl)c(-c3cc(O)cc4ccccc34)c(F)c2n1)CN1C[C@@H](C)O[C@@H](C)C1 (single isomer, unassigned) [Compound 206] , please.
Key: 46.1 nM

====

# target_of_assay: KRAS-G12D and SOS1 (Homo sapiens, UniProt P01116, G12D)
# assay_info: Inhibition of KRAS-G12D/SOS1 binding (Cisbio binding kit, 665/615 ratio), Effect Embodiment A
# conditions: read-out: GTP-KRAS-G12D:SOS1 IC50
Where a name gives a salt, the structure may show the parent alone.
Entries and their IC50
Report as a plain number; the unit nM is understood.

CN(C)CCCOc1nc(N2C[C@H]3CC[C@@H](C2)N3)c2cnc(-c3cc(O)cc4ccccc34)c(F)c2n1 [Compound 82]    21.6
CC(C)N(C)CCCOc1nc(N2CC3CCC(C2)N3)c2cc(Cl)c(-c3cc(O)cc4ccccc34)c(F)c2n1 (single isomer, unassigned) [Compound 50a]    44.3
CC(=N)N1C2CCC1CN(c1nc(N3CC(N(C)C)C3)nc3c(F)c(-c4cc(O)cc5ccccc45)c(Cl)cc13)C2 (single isomer, unassigned) [Compound 87]    23300

Exercise: Tell me the measured IC50 of C[C@@H](COc1nc(N2CC3CCC(C2)N3)c2cc(Cl)c(-c3cc(O)cc4ccccc34)c(F)c2n1)CN1C[C@H](C)OC[C@H]1C (single isomer, unassigned) [Compound 237] , please.
Key: 19.5

Exercise: Tell me the measured IC50 of CN1CC2(CC2)C[C@H]1COc1nc(N2C[C@H]3CC[C@@H](C2)N3)c2cc(Cl)c(-c3cc(O)cc4ccccc34)c(F)c2n1 (single isomer, unassigned) [Compound 167, dihydrochloride] , please.
Key: 17.9

====

# target_of_assay: KRAS-G12D and SOS1 (Homo sapiens, UniProt P01116, G12D)
# assay_info: Inhibition of KRAS-G12D/SOS1 binding (Cisbio binding kit, 665/615 ratio), Effect Embodiment A
# conditions: read-out: GTP-KRAS-G12D:SOS1 IC50
Where a name gives a salt, the structure may show the parent alone.
Entries and their pIC50
Kindly note that pIC50 refers to -log10 of the concentration in mol/L and answer with the value alone.

Solved cases below.
CN1CCC[C@H]1COc1nc(N2CC3CCC(C2)N3)c2cc(Cl)c(-c3cc(O)cc4ccccc34)c(F)c2n1 (single isomer, unassigned) [Compound 39a]    7.56
N#Cc1cccc2cc(O)cc(-c3c(F)cc4c(N5CC6CCC(C5)N6)nc(OCCCN5C6CCC5COC6)nc4c3F)c12 (single isomer, unassigned) [Compound 278a]    7.76
CO[C@H]1CCN(CCCOc2nc(N3CC4CCC(C3)N4)c3cc(Cl)c(-c4cc(O)cc5ccccc45)c(F)c3n2)[C@H](C)C1 (single isomer, unassigned)    7.57
CO[C@@H](COc1nc(N2CC3CCC(C2)N3)c2cc(Cl)c(-c3cc(O)cc4ccccc34)c(F)c2n1)CN1C2CCC1COC2 (single isomer, unassigned)    7.27

Exercise: Tell me the measured pIC50 of C[C@@H](COc1nc(N2CC3CCC(C2)N3)c2cc(Cl)c(-c3cc(B(O)O)cc4ccccc34)c(F)c2n1)CN1C2CCC1COC2 (single isomer, unassigned) , please.
Key: 7.04

Exercise: Tell me the measured pIC50 of CN1C[C@H](F)C[C@H]1COc1nc(N2CC3CCC(C2)N3)c2cc(Cl)c(-c3cc(O)cc4ccccc34)c(F)c2n1 (single isomer, unassigned) [Compound 168, dihydrochloride] , please.
Key: 7.73

====

# target_of_assay: KRAS-G12D and SOS1 (Homo sapiens, UniProt P01116, G12D)
# assay_info: Inhibition of KRAS-G12D/SOS1 binding (Cisbio binding kit, 665/615 ratio), Effect Embodiment A
# conditions: read-out: GTP-KRAS-G12D:SOS1 IC50
Counter-ions that a name gives are not always drawn.
Entries and their IC50
Report as a plain number; the unit µM is understood.

Solved cases below.
C[C@@H](COc1nc(N2CC3CCC(C2)N3)c2cc(Cl)c(-c3cc(O)cc4ccc(F)cc34)c(F)c2n1)CN1C2CCC1COC2 (single isomer, unassigned) [Compound 234a]    0.0118
C[C@H]1COCCN1CCCOc1nc(N2C[C@H]3CC[C@@H](C2)N3)c2cc(Cl)c(-c3cc(O)cc4ccccc34)c(F)c2n1 (single isomer, unassigned) [Compound 174, diformate]    0.0578

Exercise: Form entry - test system: KRAS-G12D and SOS1 (Homo sapiens, UniProt P01116, G12D); read-out: IC50; molecule: Oc1cc(-c2c(Cl)cc3c(N4CC5CCC(C4)N5)nc(OCC(F)(F)CN4CCCC4)nc3c2F)c2ccccc2c1 (single isomer, unassigned) [Compound 107, dihydrochloride]
Key: 0.047

====

// KRAS_WT and SOS1 (Homo sapiens, UniProt P01116) pIC50 records
Structures can show the parent of a compound that is named as a salt.
Kindly note that pIC50 refers to -log10 of the concentration in mol/L and answer with the value alone.

Solved cases below.
CN(C)C1CN(c2nc(N3CCCNCC3)c3cc(Cl)c(-c4cc(O)cc5ccccc45)c(F)c3n2)C1 (single isomer, unassigned) [Compound 23]    4.91
C#Cc1cccc2cc(O)cc(-c3c(F)cc4c(N5CC6CCC(C5)N6)nc(OCCCN5C6CCC5COC6)nc4c3F)c12 (single isomer, unassigned) [Compound 273a]    7.16
CCNCCCOc1nc(N2CC3CCC(C2)N3)c2cc(Cl)c(-c3cc(O)cc4ccccc34)c(F)c2n1 (single isomer, unassigned) [Compound 105, dihydrochloride]    5.52
CO[C@H]1CCN(CCCOc2nc(N3CC4CCC(C3)N4)c3cc(Cl)c(-c4cc(O)cc5ccccc45)c(F)c3n2)[C@H](C)C1 (single isomer, unassigned) [Compound 258]    5.21
NCCCCOc1nc(N2CC3CCC(C2)N3)c2cc(Cl)c(-c3cc(O)cc4ccccc34)c(F)c2n1 (single isomer, unassigned) [Compound 95, dihydrochloride]    5.18
C[C@@H]1COCCN1CCCOc1nc(N2C[C@H]3CC[C@@H](C2)N3)c2cc(Cl)c(-c3cc(O)cc4ccccc34)c(F)c2n1 (single isomer, unassigned) [Compound 181, diformate]    5.51
NCCCOc1nc(N2CC3CCC(C2)N3)c2cc(Cl)c(-c3cc(O)cc4ccccc34)c(F)c2n1 (single isomer, unassigned) [Compound 94, dihydrochloride]    5.28
CCC(COc1nc(N2CC3CCC(C2)N3)c2cc(Cl)c(-c3cc(O)cc4ccccc34)c(F)c2n1)CN1C2CCC1COC2 (single isomer, unassigned) [Compound 201b]    5.66
C[C@@H](COc1nc(N2CC3CCC(C2)N3)c2cc(Cl)c(-c3cc(O)cc4ccccc34)c(F)c2n1)CN1CCO[C@H](C)C1 (single isomer, unassigned) [Compound 242]    6.14
C#Cc1c(F)ccc2cccc(-c3c(F)cc4c(N5CC6CCC(C5)N6)nc(OC[C@@]56CCCN5C[C@H](F)C6)nc4c3F)c12 (single isomer, unassigned) [Compound 279a]    7.56

Exercise: Form entry - test system: KRAS_WT and SOS1 (Homo sapiens, UniProt P01116); read-out: pIC50; compound: CN1CCCC[C@H]1COc1nc(N2CC3CCC(C2)N3)c2cc(Cl)c(-c3cc(O)cc4ccccc34)c(F)c2n1 (single isomer, unassigned) [Compound 56a, dihydrochloride]
Sequence (P01116 1-188 isoform P01116-2): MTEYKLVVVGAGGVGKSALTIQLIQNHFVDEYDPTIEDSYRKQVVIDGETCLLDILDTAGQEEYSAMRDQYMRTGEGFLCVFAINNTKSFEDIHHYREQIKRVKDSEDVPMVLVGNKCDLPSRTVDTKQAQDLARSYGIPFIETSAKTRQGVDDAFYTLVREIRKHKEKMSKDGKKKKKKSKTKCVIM
Key: 4.86

Exercise: Form entry - test system: KRAS_WT and SOS1 (Homo sapiens, UniProt P01116); read-out: pIC50; compound: Oc1cc(-c2c(Cl)cc3c(N4CC5CCC(C4)N5)nc(OCCCN4C5CC6CC4CC(C5)O6)nc3c2F)c2ccccc2c1 (single isomer, unassigned) [Compound 235]
Key: 5.75

Exercise: Form entry - test system: KRAS_WT and SOS1 (Homo sapiens, UniProt P01116); read-out: pIC50; compound: CO[C@@H]1C[C@@H](COc2nc(N3CC4CCC(C3)N4)c3cc(Cl)c(-c4cc(O)cc5ccccc45)c(F)c3n2)N(C)C1 (single isomer, unassigned) [Compound 166, dihydrochloride]
Key: 6.26

Exercise: Form entry - test system: KRAS_WT and SOS1 (Homo sapiens, UniProt P01116); read-out: pIC50; compound: C[C@@H]1CN(CCCOc2nc(N3CC4CCC(C3)N4)c3cc(Cl)c(-c4cc(O)cc5ccccc45)c(F)c3n2)CCO1 (single isomer, unassigned) [Compound 241]
Key: 5.44

Exercise: Form entry - test system: KRAS_WT and SOS1 (Homo sapiens, UniProt P01116); read-out: pIC50; compound: C[C@H]1CN(CCCOc2nc(N3CC4CCC(C3)N4)c3cc(Cl)c(-c4cc(O)cc5ccccc45)c(F)c3n2)CCO1 (single isomer, unassigned) [Compound 246]
Key: 5.43

Exercise: Form entry - test system: KRAS_WT and SOS1 (Homo sapiens, UniProt P01116); read-out: pIC50; compound: CN(C)C1CCC(Oc2nc(N3CC4CCC(C3)N4)c3cc(Cl)c(-c4cc(O)cc5ccccc45)c(F)c3n2)C1 (single isomer, unassigned) [Compound 70c, dihydrochloride]
Key: 4.42

Exercise: Form entry - test system: KRAS_WT and SOS1 (Homo sapiens, UniProt P01116); read-out: pIC50; compound: CN(C)C1CN(c2nc(N3C[C@@H]4C[C@H]3CN4)c3cc(Cl)c(-c4cc(O)cc5ccccc45)c(F)c3n2)C1 (single isomer, unassigned) [Compound 2a]
Key: 5.01

Exercise: Form entry - test system: KRAS_WT and SOS1 (Homo sapiens, UniProt P01116); read-out: pIC50; compound: CN1C[C@@H](F)C[C@H]1COc1nc(N2CC3CCC(C2)N3)c2cnc(-c3cc(O)cc4ccccc34)c(F)c2n1 [Compound 129]
Key: 5.64

Exercise: Form entry - test system: KRAS_WT and SOS1 (Homo sapiens, UniProt P01116); read-out: pIC50; compound: Oc1cc(-c2c(Cl)cc3c(N4CC5CCC(C4)N5)nc(OCCN4CCCC(F)C4)nc3c2F)c2ccccc2c1 (single isomer, unassigned) [Compound 267b]
Key: 5.34
